- test-system: T1, Biotin-huCGRPaSA (human, not fully specified; biotin (position not given))
- T1 construct: exact construct ('aSA') not explained; also called Biotin CGRPaSA; full-length (1-37) CGRP
- T1 peptide: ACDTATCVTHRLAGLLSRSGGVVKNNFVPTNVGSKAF
- protocol-text: ELISA, supernatant; relative to chimeric C245
Below: a set of entries, each annotated with reported Relative binding activity, %.

binder	Relative binding activity, % (%)
hu114 (antibody, V domains shown, 2B8 HC1-1/2B8 LC2-2) VH: QVQLVQSGAEVKKPGASVKVSCKASGYTFTDYNMHWVRQAPGQGLEWMGNIYPYNGGTVYNQKFNNRVTLTVDTSSSTAYMELSRLRSDDTAVYYCAREGLGGYWGQGTLVTVSS VL: DVQLTQSPSFLSASVGDRVTITCQASQNIDGNTYMNWYQQKPGKAPKVLIYSIFNLESGVPSRFSGSGSGTEFTLTISSLQPEDFATYYCQQSNDYPYTFGQGTKLEIK	41
hu8 (antibody, V domains shown, 1B2 HC-1/1F5 LC1-4) VH: QVQLVQSGAEVKKPGASVKVSCKASGYTFTDYNMHWVRQAPGQGLEWMGYIFPYNGVAVYNRKFRSRVTLTIDTSSSTAYMELRSLRSDDTAVYYCAREGLGGYWGQGTLVTVSS VL: DIVLTQSPDSLAVSLGERATINCKASQNIDFDGYAYMNWYQHKPGQPPKVLIYSVFNLESGVPDRFSGSGSGTDFTLTISSLQAEDVAVYYCQQSHEVPYTFGQGTKLEIK	72
